Provide the recorded IC50 for the entries that follow.
- Measured on: GlyT1 (Homo sapiens)
- Construct: expressed in transfected cells
- Sequence (P48067 1-706): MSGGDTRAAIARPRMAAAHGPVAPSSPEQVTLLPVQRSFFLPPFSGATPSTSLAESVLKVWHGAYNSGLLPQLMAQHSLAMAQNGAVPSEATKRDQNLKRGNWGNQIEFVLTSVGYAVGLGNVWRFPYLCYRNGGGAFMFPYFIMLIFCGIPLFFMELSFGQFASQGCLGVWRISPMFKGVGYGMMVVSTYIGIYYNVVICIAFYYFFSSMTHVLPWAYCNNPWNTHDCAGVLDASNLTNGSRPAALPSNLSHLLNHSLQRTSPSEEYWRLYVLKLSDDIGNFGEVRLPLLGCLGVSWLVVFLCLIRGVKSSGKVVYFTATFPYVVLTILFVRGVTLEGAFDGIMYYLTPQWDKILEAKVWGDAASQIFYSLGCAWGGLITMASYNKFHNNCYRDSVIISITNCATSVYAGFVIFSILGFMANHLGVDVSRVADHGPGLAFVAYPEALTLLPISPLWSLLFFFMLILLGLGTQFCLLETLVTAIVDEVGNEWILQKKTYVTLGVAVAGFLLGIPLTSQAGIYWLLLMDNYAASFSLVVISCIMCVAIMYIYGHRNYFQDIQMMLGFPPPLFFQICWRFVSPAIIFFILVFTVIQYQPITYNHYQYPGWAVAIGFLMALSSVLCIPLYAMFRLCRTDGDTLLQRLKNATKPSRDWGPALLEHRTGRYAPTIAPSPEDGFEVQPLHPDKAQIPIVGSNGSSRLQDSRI
- Assay name: Glycine Transporter 1 (GlyT1) uptake assay, scintillation proximity assay of [14C]-glycine uptake
- Type: cell-based
- Assay context: SPA, four parameter logistic fit, read-out: GlyT1 (pIC50) (converted)
- Description: Glycine Transporter 1 (GlyT1) Uptake Assay Plates were then read on a MicroBeta plate counter (Perkin Elmer). Dose-response data for tested compounds were analyzed and curves were fit using a four parameter logistic fit to determine IC50 values. […]

[Q] Given the compound `Cc1cc(-n2cc3c(n2)CN(C(=O)c2cc(C#N)ccc2OCC2(C)COC2)C3)ccn1` , what is its reported IC50?
[A] 1000 to 10000 nM

[Q] Lookup `COc1c(C#N)ccc(C2CCCC2)c1C(=O)N1CCc2nn(-c3ccccc3)cc2C1`
[A] < 100 nM

[Q] Lookup COc1ccc(-n2cc3c(n2)CCN(C(=O)c2c(OC(C)C(F)(F)F)ccc(C#N)c2OC)C3)cc1 (stereo not shown)
[A] 100 to 1000 nM

[Q] Lookup COc1c(C#N)ccc(OC(C)C(F)(F)F)c1C(=O)N1CCc2nn(-c3ccncc3)cc2C1 (stereo not shown)
[A] < 100 nM

[Q] Lookup `COc1cc(-n2ncc3c2CN(C(=O)c2cc(C#N)ccc2O[C@@H](C)C(F)(F)F)C3)ccn1`
[A] 1000 to 10000 nM

[Q] Lookup `COc1c(C#N)ccc(O[C@@H](C)C(F)(F)F)c1C(=O)N1Cc2cn(-c3ncccc3C)nc2C1`
[A] < 100 nM

[Q] Lookup `Cc1nc(-n2cc3c(n2)CN(C(=O)c2c(O[C@@H](C)C(F)(F)F)ccc(C#N)c2Cl)C3)ccc1F`
[A] < 100 nM

[Q] Lookup `COc1c(C#N)ccc(OCC(F)(F)F)c1C(=O)N1Cc2cn(-c3ncccc3F)nc2C1`
[A] < 100 nM

[Q] Lookup `C[C@H](Oc1ccc(C#N)c(Cl)c1C(=O)N1Cc2cn(-c3ccccc3F)nc2C1)C(F)(F)F`
[A] < 100 nM

[Q] Lookup `Cc1ccnc(-n2cc3c(n2)CN(C(=O)c2cc(S(C)(=O)=O)ccc2O[C@@H](C)C(F)(F)F)C3)c1`
[A] < 100 nM

[Q] Lookup `CS(=O)(=O)c1ccc(-c2cccc(F)c2)c(C(=O)N2Cc3cn(CC4CC(F)(F)C4)nc3C2)c1`
[A] < 100 nM

[Q] Lookup `C[C@H](Oc1ccc(S(C)(=O)=O)cc1C(=O)N1Cc2cn(CC3CCC3)nc2C1)C(F)(F)F`
[A] < 100 nM

[Q] Lookup `CC(C)Cn1cc2c(n1)CN(C(=O)c1cc(S(C)(=O)=O)ccc1OC(C)C)C2`
[A] < 100 nM
